experiment: Plasma drug level in treated dogs; type: in vivo, Beagle dogs; conditions: dog, sc, group 2: sucrose octaacetate/triacetin formulation, 10 mg/kg subcutaneously, read-out: peak plasma levels
Outcome Measure: Cmax

Problem: Given the molecule N#Cc1nn(-c2c(Cl)cc(S(F)(F)(F)(F)F)cc2Cl)c(N)c1SC(F)(F)F , write its reported Cmax.
Result: > 100 ng/mL
